Each entry below lists one item and its recorded TD50 value.
- Test system: rodent lifetime carcinogenesis bioassay, tumor incidence TD50
- test_summary: carcinogenic potency in animals, long-term in vivo studies, CPDB compilation (AID 1745844)
- measurement_parameters: mouse; strain B6C3F1; females; inhaled; site: liver; lesion: hepatocellular adenoma; dosed 104 weeks; study length 104 weeks
Report as a plain number; the unit mg/kg/day is understood.

Examples from the recorded data:
Input: Which measured TD50 value corresponds to C=CC(=C)Cl ?
Output: 19.8

Input: Proceed to ClCCl
Output: 4860

Here is another compound to look at.
Input: Recorded TD50 for CC(O)COC(C)(C)C (stereo not drawn) , please?
Output: 1780

###

- Tested on: rodent lifetime carcinogenesis bioassay, tumor incidence TD50
- test_summary: carcinogenic potency in animals, long-term in vivo studies, CPDB compilation (AID 1745844)
- measurement_parameters: rat; strain Fischer 344; males; in feed; site: thyroid gland; lesion: follicular-cell adenoma; dosed 104 weeks; study length 104 weeks
quantity: TD50
Be sure to follow the number with its unit.

Input: Sample ClC1(Cl)C2(Cl)C3(Cl)C4(Cl)C(Cl)(Cl)C5(Cl)C3(Cl)C1(Cl)C5(Cl)C24Cl (stereo unspecified) — what was its TD50?
Output: 12.7 mg/kg/day

###

- Tested on: rodent lifetime carcinogenesis bioassay, tumor incidence TD50
- test_summary: carcinogenic potency in animals, long-term in vivo studies, CPDB compilation (AID 1745844)
- measurement_parameters: rat; strain BD; both sexes; by gavage; site: any site (literature study); lesion: malignant tumor; dosed 104 weeks; study length 104 weeks
quantity: TD50

Input: Any idea what its TD50 is? The molecule is CN(C)N=Nc1ccccc1
Output: 2.31 mg/kg/day

###

- Test system: rodent lifetime carcinogenesis bioassay, tumor incidence TD50
- test_summary: carcinogenic potency in animals, long-term in vivo studies, CPDB compilation (AID 1745844)
- measurement_parameters: mouse; strain B6C3F1; males; by gavage; site: multiple organs; lesion: malignant lymphoma, histiocytic type + malignant lymphoma, mixed type + malignant lymphoma, lymphocytic type + malignant lymph; dosed 104 weeks; study length 105 weeks
Activity calls are given as the source filed them. The rule behind the calls is not given here.
quantity: TD50

Input: Give the measured TD50 of OC[P+](CO)(CO)CO .
Output: 11.4 mg/kg/day (inactive)

###

- System: rodent lifetime carcinogenesis bioassay, tumor incidence TD50
- test_summary: carcinogenic potency in animals, long-term in vivo studies, CPDB compilation (AID 1745844)
- measurement_parameters: rat; strain BR 46; males; by gavage; site: any site (literature study); lesion: benign tumor; dosed 52 weeks; study length 104 weeks
quantity: TD50 (mg/kg/day)
Could you give me the number in mg/kg/day? Just the number is fine.

Input: For the compound CS(=O)(=O)OCCCCOS(C)(=O)=O , what TD50 is on record?
Output: 0.642

###

- Test system: rodent lifetime carcinogenesis bioassay, tumor incidence TD50
- test_summary: carcinogenic potency in animals, long-term in vivo studies, CPDB compilation (AID 1745844)
- measurement_parameters: hamster; strain Syrian Golden; females; by gavage; site: liver; lesion: cholangioma; dosed 30 weeks; study length 75 weeks
quantity: TD50 (mg/kg/day)
Write down the numeric answer in mg/kg/day and omit the unit.

Input: Look up TD50 for this compound: CCN(N=O)C(=O)NCCO
Output: 27.5

###

- System: rodent lifetime carcinogenesis bioassay, tumor incidence TD50
- test_summary: carcinogenic potency in animals, long-term in vivo studies, CPDB compilation (AID 1745844)
- measurement_parameters: rat; strain Fischer 344; females; in drinking water; site: tongue; lesion: several types; types named in the paper; dosed 45 weeks; study length 126 weeks
quantity: TD50 (mg/kg/day)
// return numeric value only (unit: mg/kg/day, not printed)

Input: Name the reported TD50 value associated with the compound O=NN1CCOCC1
Output: 6.54

The measured values listed here are drawn from PubChem BioAssay AID1745844.
